# TARGET: hH4R (Homo sapiens, UniProt Q9H3N8)
# Sequence (Q9H3N8 whole entry): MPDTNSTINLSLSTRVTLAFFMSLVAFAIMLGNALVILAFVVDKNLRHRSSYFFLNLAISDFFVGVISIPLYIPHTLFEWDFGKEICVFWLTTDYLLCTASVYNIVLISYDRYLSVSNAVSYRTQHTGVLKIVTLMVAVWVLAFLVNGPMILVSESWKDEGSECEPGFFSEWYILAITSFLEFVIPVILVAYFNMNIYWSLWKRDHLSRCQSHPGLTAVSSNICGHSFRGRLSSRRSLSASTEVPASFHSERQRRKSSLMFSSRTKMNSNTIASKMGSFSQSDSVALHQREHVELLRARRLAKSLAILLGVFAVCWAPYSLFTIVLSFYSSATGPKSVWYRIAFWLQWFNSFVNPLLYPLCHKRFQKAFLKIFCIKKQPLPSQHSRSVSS
# ASSAY_REMARKS: cAMP accumulation assay (LANCE Ultra cAMP, CHO-K1 cells stably expressing hH4R)
# Type: cell-based
# Set-up: expressed in transfected cells
# CONDITION_DETAILS: antagonist mode, forskolin 10 µM, histamine 140 nM, CHO-K1 hH4R cells; read-out: cAMP hH4R IC50 ± SEM
IC50 reference
Supply the numeric figure in nM, leaving out any unit text.

[
  {
    "COMPOUND": "CN1CCN(c2nc(N)nc(C3CC3)n2)CC1",
    "REPORTED_VALUE": 847
  }
]

Entry CCCCc1nc(N)nc(N2CCN(C)CC2)n1 : reported IC50 = ?
445

Entry CCCC(C)c1nc(N)nc(N2CCN(C)CC2)n1 (stereo not shown) : reported IC50 = ?
640

Entry CN1CCN(c2nc(N)nc(C3CCCC3)n2)CC1 : reported IC50 = ?
102

Entry C=CCC(C)c1nc(N)nc(N2CCN(C)CC2)n1 (stereo not shown) : reported IC50 = ?
721

Entry CN1CCN(c2nc(N)nc(C3CCC3)n2)CC1 : reported IC50 = ?
104

Entry CN1CCN(c2nc(N)nc(C3CCCCC3)n2)CC1 : reported IC50 = ?
219

Entry C=CC(C)Cc1nc(N)nc(N2CCN(C)CC2)n1 (stereo not shown) : reported IC50 = ?
188

Entry C=CCCc1nc(N)nc(N2CCN(C)CC2)n1 : reported IC50 = ?
635

====

# TARGET: hH4R (Homo sapiens, UniProt Q9H3N8)
# ASSAY_REMARKS: cAMP accumulation assay (LANCE Ultra cAMP, CHO-K1 cells stably expressing hH4R)
# Format: cell-based
# Design: expressed in transfected cells
# CONDITION_DETAILS: calculated from IC50 by Leff–Dougall variant of Cheng–Prusoff equation; read-out: pKb cAMP ± SEM (converted)
The threshold is 40 nM. Values of Kb beneath it are tagged TRUE; values meeting or exceeding it are tagged FALSE.

Study these solved cases before continuing.
[
  {
    "CHEMICAL_STRING": "CCCCCc1nc(N)nc(N2CCN(C)CC2)n1",
    "QUALITATIVE_LABEL": "FALSE"
  },
  {
    "CHEMICAL_STRING": "C=CCCc1nc(N)nc(N2CCN(C)CC2)n1",
    "QUALITATIVE_LABEL": "FALSE"
  },
  {
    "CHEMICAL_STRING": "CN1CCN(c2nc(N)nc(C3CC3)n2)CC1",
    "QUALITATIVE_LABEL": "FALSE"
  },
  {
    "CHEMICAL_STRING": "CN1CCN(c2nc(N)nc(CC3CCCC3)n2)CC1",
    "QUALITATIVE_LABEL": "TRUE"
  },
  {
    "CHEMICAL_STRING": "CN1CCN(c2nc(N)nc(C3CCC3)n2)CC1",
    "QUALITATIVE_LABEL": "TRUE"
  }
]

For the next question, use this compound.
Just wondering, is Kb of CN1CCN(c2nc(N)nc(C3CCCCC3)n2)CC1 below 40 nM?
FALSE

====

# ASSAY_REMARKS: PAMPA assay (blood-brain barrier permeability)
# Type: in vitro ADME
# CONDITION_DETAILS: PBS pH 7.4, permeable if Pe > 1.5 × 10^−6 cm/s, read-out: Pe (permeability coefficient) ± SD
READOUT_KIND: Papp at 5 h, 200 µM
The answer should read as a number with its unit following.

Entry CN1CCN(c2nc(N)nc(CC3CCCC3)n2)CC1 : reported Papp at 5 h, 200 µM = ?
12.3 ×10⁻⁶ cm/s

====

melting point reference

Study these solved cases before continuing.
[
  {
    "COMPOUND": "CCCCc1nc(N)nc(N2CCN(C)CC2)n1",
    "melting point": "117 to 118 °C"
  },
  {
    "COMPOUND": "CCCC(C)c1nc(N)nc(N2CCN(C)CC2)n1 (stereo not shown)",
    "melting point": "138 to 140 °C"
  },
  {
    "COMPOUND": "CN1CCN(c2nc(N)nc(C3CC3)n2)CC1",
    "melting point": "156 to 159 °C"
  },
  {
    "COMPOUND": "C=CCC(C)c1nc(N)nc(N2CCN(C)CC2)n1 (stereo not shown)",
    "melting point": "134 to 136 °C"
  },
  {
    "COMPOUND": "CN1CCN(c2nc(N)nc(CC3CCCC3)n2)CC1",
    "melting point": "165 to 168 °C"
  },
  {
    "COMPOUND": "CN1CCN(c2nc(N)nc(CC34CC5CC(CC(C5)C3)C4)n2)CC1",
    "melting point": "200 to 201 °C"
  },
  {
    "COMPOUND": "C=CC(C)Cc1nc(N)nc(N2CCN(C)CC2)n1 (stereo not shown)",
    "melting point": "113 to 115 °C"
  },
  {
    "COMPOUND": "CCC(C)Cc1nc(N)nc(N2CCN(C)CC2)n1 (stereo not shown)",
    "melting point": "115 to 116 °C"
  }
]

Entry CN1CCN(c2nc(N)nc(C3CCCCC3)n2)CC1 : reported melting point = ?
133 to 138 °C

Entry CC/C=C/c1nc(N)nc(N2CCN(C)CC2)n1 : reported melting point = ?
125 to 126 °C

Entry CCCCCc1nc(N)nc(N2CCN(C)CC2)n1 : reported melting point = ?
173 to 178 °C

Entry CC/C=C/Cc1nc(N)nc(N2CCN(C)CC2)n1 : reported melting point = ?
117 to 119 °C

Entry CC(C)CCc1nc(N)nc(N2CCN(C)CC2)n1 : reported melting point = ?
123 to 126 °C

Entry CN1CCN(c2nc(N)nc(CC3C=CCC3)n2)CC1 (stereo not shown) : reported melting point = ?
166 to 169 °C

Entry CN1CCN(c2nc(N)nc(CC3=CCCCC3)n2)CC1 : reported melting point = ?
149 to 153 °C

====

# TARGET: hH4R (Homo sapiens, UniProt Q9H3N8)
# ASSAY_REMARKS: cAMP accumulation assay (LANCE Ultra cAMP, CHO-K1 cells stably expressing hH4R)
# Type: cell-based
# Design: expressed in transfected cells
# CONDITION_DETAILS: calculated from IC50 by Leff–Dougall variant of Cheng–Prusoff equation; read-out: pKb cAMP ± SEM (converted)
READOUT_KIND: log10 of Kb (log10 of the value in nM)
Heads up, the numbers here are log10 of Kb in nM units.

Study these solved cases before continuing.
[
  {
    "COMPOUND": "CC(C)CCc1nc(N)nc(N2CCN(C)CC2)n1 [Compound 14]",
    "TARGET": "hH4R (Homo sapiens, UniProt Q9H3N8)",
    "REPORTED_VALUE": 1.14
  },
  {
    "COMPOUND": "C=CC(C)Cc1nc(N)nc(N2CCN(C)CC2)n1 (stereo not shown) [Compound 18]",
    "TARGET": "hH4R (Homo sapiens, UniProt Q9H3N8)",
    "REPORTED_VALUE": 1.81
  },
  {
    "COMPOUND": "CN1CCN(c2nc(N)nc(CC3C=CCC3)n2)CC1 (stereo not shown) [Compound 7]",
    "TARGET": "hH4R (Homo sapiens, UniProt Q9H3N8)",
    "REPORTED_VALUE": 1.06
  },
  {
    "COMPOUND": "CCCCc1nc(N)nc(N2CCN(C)CC2)n1 [Compound 10]",
    "TARGET": "hH4R (Homo sapiens, UniProt Q9H3N8)",
    "REPORTED_VALUE": 2.20
  },
  {
    "COMPOUND": "C=CCC(C)c1nc(N)nc(N2CCN(C)CC2)n1 (stereo not shown) [Compound 17]",
    "TARGET": "hH4R (Homo sapiens, UniProt Q9H3N8)",
    "REPORTED_VALUE": 2.41
  }
]

Entry CN1CCN(c2nc(N)nc(C3CCCC3)n2)CC1 [Compound 4] : reported log10 of Kb = ?
1.56

Entry CCCC(C)c1nc(N)nc(N2CCN(C)CC2)n1 (stereo not shown) [Compound 11] : reported log10 of Kb = ?
2.35

Entry CN1CCN(c2nc(N)nc(CC3=CCCCC3)n2)CC1 [Compound 8] : reported log10 of Kb = ?
2.42

Entry CCC(C)Cc1nc(N)nc(N2CCN(C)CC2)n1 (stereo not shown) [Compound 12] : reported log10 of Kb = ?
1.67

Entry CN1CCN(c2nc(N)nc(CC3CCCCC3)n2)CC1 [TR-AF-49] : reported log10 of Kb = ?
1.98
